- Species on record: Homo sapiens
- experimentNotes: Selectivity index, ratio of IC50 for wild type EGFR expressing human A431 cells to IC50 for EGFR T790M/L858R double mutant expressing human NCI-H1975 cells
Lab note: anything with Ratio IC50 at or over 40 counts as condition met; the rest go in condition not met.

Please review the following examples before continuing.
C=CC(=O)Nc1cc(Nc2nccc(Nc3ccccc3-c3ncn(C)n3)n2)c(OC)cc1N(C)CCN(C)C
condition not met
C=CC(=O)Nc1cc(Nc2nccc(Nc3ccccc3-c3ccn(C)n3)n2)c(OC)cc1N(C)CCN(C)C
condition met
C=CC(=O)Nc1cc(Nc2nccc(Nc3ccccc3-c3ccn(C)n3)n2)c(OC)cc1OCCN(C)C
condition not met

With those in mind, consider the next compound.
Input line: # bool: Ratio IC50 of C=CC(=O)Nc1cc(Nc2nccc(Nc3ccccc3-n3cccn3)n2)c(OC)cc1N(C)CCN(C)C >= 40
Output line: condition met

###

- Organism: Homo sapiens
- experimentNotes: Selectivity ratio of IC50 for recombinant human GST-tagged wild type EGFR to IC50 for recombinant human GST-tagged EGFR T790M/L858R double mutant
Rule: Ratio IC50 under 90 gives not met, otherwise met.

Answered examples (4):
C=CC(=O)Nc1cc(Nc2nccc(Nc3ccccc3-c3ccn(C)n3)n2)c(OC)cc1N(C)CCN(C)C
not met
C=CC(=O)Nc1cc(Nc2nccc(Nc3ccccc3-n3cccn3)n2)c(OC)cc1N(C)CCN(C)C
met
C=CC(=O)Nc1cc(Nc2nccc(Nc3ccccc3-c3ncn(C)n3)n2)c(OC)cc1N(C)CCN(C)C
not met
C=CC(=O)Nc1cc(Nc2nccc(Nc3ccccc3-c3ccn(C)n3)n2)c(OC)cc1OCCN(C)C
not met

We now examine a further compound.
Input line: Does C=CC(=O)Nc1cc(Nc2nccc(Nc3ccccc3-n3nccn3)n2)c(OC)cc1N(C)CCN(C)C have a reported Ratio IC50 of at least 90?
Output line: not met

###

- testTarget: UniProt P00533
- experimentNotes: Inhibition of recombinant human GST-tagged wild type EGFR expressed in baculovirus expression system using poly (Glu, Tyr) 4:1 as substrate after 1 hr by ELISA
Quick reference for IC50 among some compounds

Record excerpt, results attached:
C=CC(=O)Nc1cc(Nc2nccc(Nc3ccccc3-c3ccn(C)n3)n2)c(OC)cc1N(C)CCN(C)C
0.35 µM
C=CC(=O)Nc1cc(Nc2nccc(Nc3ccccc3-c3ncn(C)n3)n2)c(OC)cc1N(C)CCN(C)C
0.66 µM
C=CC(=O)Nc1cc(Nc2nccc(Nc3ccccc3-c3ccn(C)n3)n2)c(OC)cc1N1CCN(C)CC1
> 1 µM
C=CC(=O)Nc1cc(Nc2nccc(Nc3ccccc3-c3ccn(C)n3)n2)c(OC)cc1N1CCC(N(C)C)CC1
> 1 µM
C=CC(=O)Nc1cc(Nc2nccc(Nc3ccccc3-n3nccn3)n2)c(OC)cc1N1CCC(N(C)C)CC1
> 1 µM
C=CC(=O)Nc1cc(Nc2nccc(Nc3ccccc3-c3ccn(C)n3)n2)c(OC)cc1N1CCOCC1
> 1 µM
C=CC(=O)Nc1cc(Nc2nccc(Nc3ccccc3-n3cccn3)n2)c(OC)cc1N(C)CCN(C)C
0.648 µM

Input line: Tell me its IC50 given C=CC(=O)Nc1cc(Nc2nccc(Nc3ccccc3-n3cccn3)n2)c(OC)cc1N1CCN(C)CC1 as the entry.
Output line: > 1 µM

###

- testTarget: Epidermal growth factor receptor (Homo sapiens, UniProt P00533)
- Sequence (P00533 whole entry): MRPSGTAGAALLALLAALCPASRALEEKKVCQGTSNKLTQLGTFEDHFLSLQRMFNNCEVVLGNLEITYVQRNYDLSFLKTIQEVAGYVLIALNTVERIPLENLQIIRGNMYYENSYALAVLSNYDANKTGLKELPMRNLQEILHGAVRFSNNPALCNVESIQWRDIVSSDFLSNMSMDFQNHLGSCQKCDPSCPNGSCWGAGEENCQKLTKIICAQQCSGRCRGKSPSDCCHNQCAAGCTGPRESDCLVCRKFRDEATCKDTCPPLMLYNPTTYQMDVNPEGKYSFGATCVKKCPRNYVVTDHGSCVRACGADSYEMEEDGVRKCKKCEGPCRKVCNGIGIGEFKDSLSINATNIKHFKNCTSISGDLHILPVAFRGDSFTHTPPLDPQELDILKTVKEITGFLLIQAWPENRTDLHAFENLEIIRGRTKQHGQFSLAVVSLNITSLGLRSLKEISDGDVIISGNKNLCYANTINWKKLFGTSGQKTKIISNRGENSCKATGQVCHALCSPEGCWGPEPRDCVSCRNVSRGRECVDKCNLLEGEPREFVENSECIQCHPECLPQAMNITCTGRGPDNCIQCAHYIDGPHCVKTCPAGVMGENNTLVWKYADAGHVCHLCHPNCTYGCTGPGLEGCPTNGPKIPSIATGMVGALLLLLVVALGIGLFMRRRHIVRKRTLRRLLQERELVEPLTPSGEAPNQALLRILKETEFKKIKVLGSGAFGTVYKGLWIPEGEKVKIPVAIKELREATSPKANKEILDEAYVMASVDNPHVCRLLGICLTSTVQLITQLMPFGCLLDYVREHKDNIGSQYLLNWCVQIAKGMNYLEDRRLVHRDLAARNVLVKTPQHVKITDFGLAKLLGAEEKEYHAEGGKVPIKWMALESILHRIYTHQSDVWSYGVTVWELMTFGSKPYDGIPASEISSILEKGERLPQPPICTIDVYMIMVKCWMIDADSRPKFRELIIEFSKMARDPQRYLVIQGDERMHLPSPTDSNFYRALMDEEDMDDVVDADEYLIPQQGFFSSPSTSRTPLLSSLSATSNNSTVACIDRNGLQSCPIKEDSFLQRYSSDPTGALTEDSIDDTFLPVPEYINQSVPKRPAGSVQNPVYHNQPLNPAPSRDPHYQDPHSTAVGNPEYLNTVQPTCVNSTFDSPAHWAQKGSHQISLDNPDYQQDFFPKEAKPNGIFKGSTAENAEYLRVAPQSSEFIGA
- experimentNotes: Inhibition of recombinant human GST-tagged wild type EGFR expressed in baculovirus expression system using poly (Glu, Tyr) 4:1 as substrate after 1 hr by ELISA
testReadout: pIC50
// returns pIC50 (minus log10 of molar concentration), number only

C=CC(=O)Nc1cc(Nc2nccc(Nc3ccccc3-n3nccn3)n2)c(OC)cc1N(C)CCN(C)C
6.55

Input line: Respond only with pIC50 recorded for C=CC(=O)Nc1cc(Nc2nccc(Nc3ccccc3-c3ccn(C)n3)n2)c(OC)cc1OCCN(C)C
Output line: 6.50

###

log10 IC50 reference
- testTarget: Epidermal growth factor receptor (Homo sapiens, UniProt P00533, L858R/T790M)
- Sequence (P00533 25-1210 T790M/L858R limits assumed): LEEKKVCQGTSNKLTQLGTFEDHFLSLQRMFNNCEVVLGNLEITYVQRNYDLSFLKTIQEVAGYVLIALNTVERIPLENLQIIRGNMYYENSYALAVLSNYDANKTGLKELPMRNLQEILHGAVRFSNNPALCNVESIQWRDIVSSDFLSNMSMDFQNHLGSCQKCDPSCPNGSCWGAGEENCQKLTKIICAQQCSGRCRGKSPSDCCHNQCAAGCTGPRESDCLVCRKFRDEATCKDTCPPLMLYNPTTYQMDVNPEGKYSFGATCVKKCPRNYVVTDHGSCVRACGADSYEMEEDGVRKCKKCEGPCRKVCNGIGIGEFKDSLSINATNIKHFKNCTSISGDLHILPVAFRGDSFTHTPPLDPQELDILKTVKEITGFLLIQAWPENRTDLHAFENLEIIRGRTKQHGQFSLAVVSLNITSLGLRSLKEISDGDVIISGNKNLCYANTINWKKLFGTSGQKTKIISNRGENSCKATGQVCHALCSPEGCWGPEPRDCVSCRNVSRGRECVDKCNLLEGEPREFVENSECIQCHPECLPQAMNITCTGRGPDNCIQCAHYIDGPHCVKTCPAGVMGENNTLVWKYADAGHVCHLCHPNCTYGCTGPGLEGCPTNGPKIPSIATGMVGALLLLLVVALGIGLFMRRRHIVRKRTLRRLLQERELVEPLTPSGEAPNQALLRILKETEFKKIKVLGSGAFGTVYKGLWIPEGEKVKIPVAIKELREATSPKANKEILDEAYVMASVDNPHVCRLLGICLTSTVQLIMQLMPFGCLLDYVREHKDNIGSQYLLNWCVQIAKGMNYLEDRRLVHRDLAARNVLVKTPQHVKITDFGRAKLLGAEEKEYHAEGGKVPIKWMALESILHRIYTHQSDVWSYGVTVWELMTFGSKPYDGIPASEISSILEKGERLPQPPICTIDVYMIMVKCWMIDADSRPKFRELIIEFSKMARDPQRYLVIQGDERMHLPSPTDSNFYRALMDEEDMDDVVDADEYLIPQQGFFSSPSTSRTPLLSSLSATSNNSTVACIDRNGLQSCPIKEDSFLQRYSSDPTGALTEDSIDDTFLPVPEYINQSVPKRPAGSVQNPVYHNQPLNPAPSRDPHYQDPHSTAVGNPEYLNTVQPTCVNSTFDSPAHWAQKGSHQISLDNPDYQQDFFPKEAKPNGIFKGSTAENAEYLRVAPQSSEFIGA
- experimentNotes: Inhibition of recombinant human GST-tagged EGFR T790M/L858R double mutant expressed in baculovirus expression system using poly (Glu, Tyr) 4:1 as substrate after 1 hr by ELISA
Units before log transform: nM; reported quantity: IC50; transform: log10.

Previously resolved entries follow.
C=CC(=O)Nc1cc(Nc2nccc(Nc3ccccc3-n3nccn3)n2)c(OC)cc1N1CCOCC1
2.92
C=CC(=O)Nc1cc(Nc2nccc(Nc3ccccc3-c3ccn(C)n3)n2)c(OC)cc1OCCN(C)C
1.21
C=CC(=O)Nc1cc(Nc2nccc(Nc3ccccc3-c3ncn(C)n3)n2)c(OC)cc1N(C)CCN(C)C
0.89
C=CC(=O)Nc1cc(Nc2nccc(Nc3ccccc3-n3cccn3)n2)c(OC)cc1N(C)CCN(C)C
0.61
C=CC(=O)Nc1cc(Nc2nccc(Nc3ccccc3-n3cccn3)n2)c(OC)cc1N1CCN(C)CC1
2.16
C=CC(=O)Nc1cc(Nc2nccc(Nc3ccccc3-n3nccn3)n2)c(OC)cc1N1CCN(C)CC1
2.24
C=CC(=O)Nc1cc(Nc2nccc(Nc3ccccc3-n3nccn3)n2)c(OC)cc1N(C)CCN(C)C
1.52
C=CC(=O)Nc1cc(Nc2nccc(Nc3ccccc3-n3nccn3)n2)c(OC)cc1N1CCC(N(C)C)CC1
2.31

Input line: Give log10 IC50 for the following molecule: C=CC(=O)Nc1cc(Nc2nccc(Nc3ccccc3-c3ccn(C)n3)n2)c(OC)cc1N1CCC(N(C)C)CC1
Output line: 1.59

Input line: // fetch log10 IC50 given entry C=CC(=O)Nc1cc(Nc2nccc(Nc3ccccc3-c3ccn(C)n3)n2)c(OC)cc1N(C)CCN(C)C
Output line: 0.61

###

- testTarget: Epidermal growth factor receptor (Homo sapiens)
- experimentNotes: Inhibition of recombinant human GST-tagged wild type EGFR expressed in baculovirus expression system using poly (Glu, Tyr) 4:1 as substrate after 1 hr by ELISA
Listing of entries alongside the reported IC50.

Input line: Retrieve IC50 measured for C=CC(=O)Nc1cc(Nc2nccc(Nc3ccccc3-n3nccn3)n2)c(OC)cc1N1CCN(C)CC1 and print it.
Output line: > 1 µM

Input line: Determine from records and report IC50 for C=CC(=O)Nc1cc(Nc2nccc(Nc3ccccc3-n3nccn3)n2)c(OC)cc1N1CCOCC1
Output line: > 1 µM

Input line: For C=CC(=O)Nc1cc(Nc2nccc(Nc3ccccc3-n3cccn3)n2)c(OC)cc1N1CCOCC1 , write its IC50.
Output line: > 1 µM

###

Catalogue of pIC50 readings, one per entry.
- testTarget: Epidermal growth factor receptor (Homo sapiens, UniProt P00533, L858R/T790M)
- experimentNotes: Inhibition of recombinant human GST-tagged EGFR T790M/L858R double mutant expressed in baculovirus expression system using poly (Glu, Tyr) 4:1 as substrate after 1 hr by ELISA
pIC50: −log10 of the molar value.

Past entries and their recorded results:
C=CC(=O)Nc1cc(Nc2nccc(Nc3ccccc3-n3cccn3)n2)c(OC)cc1N1CCOCC1
< 6.00
C=CC(=O)Nc1cc(Nc2nccc(Nc3ccccc3-c3ccn(C)n3)n2)c(OC)cc1N1CCOCC1
< 6.00

Now turn to the next compound.
Input line: For the compound C=CC(=O)Nc1cc(Nc2nccc(Nc3ccccc3-c3ccn(C)n3)n2)c(OC)cc1N1CCN(C)CC1 , give its measured pIC50 value.
Output line: < 6.00
